Target: T1, RHPN1, Q8TCX5
T1 sequence (Q8TCX5 508-602, limits assumed, looked up): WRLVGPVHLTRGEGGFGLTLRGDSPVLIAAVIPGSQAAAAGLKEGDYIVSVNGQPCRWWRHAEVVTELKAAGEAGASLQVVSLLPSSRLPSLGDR
Experiment: holdup assay
Design: key: below the threshold = too weak to quantify, mostly under pKd 3.1 to 4
Conditions: plain residues with an end cap or a label only (N-terminal biotin on a linker: ado-ado)
recorded endpoint: pKd

[[record]]
binder = "PAALPESTHM [SLC9A3, P48764]"
recorded_endpoint = "pKd"
endpoint_result = "below the threshold"

[[record]]
binder = "LVEEEEPMNL [HDAC7, Q8WUI4]"
recorded_endpoint = "pKd"
endpoint_result = "below the threshold"

[[record]]
binder = "GQNMTVSVVI [PRLHR, P49683]"
recorded_endpoint = "pKd"
endpoint_result = "below the threshold"


Recorded values, source paper PMC9482650.
